target: human Nav1.8 (Homo sapiens (Human)); assay: E-VIPR optical membrane potential assay with electrical stimulation; conditions: HEK cells expressing human Nav1.8
pIC50: −log10 of the molar value.
readout: pIC50

Field: example entries. Status: answers known.
# entry-smiles, assayed-system, pIC50
measured = [
    ("COc1ccc(Oc2nc3ccccc3nc2C(=O)Nc2cccc(S(N)(=O)=O)c2)c(OC)c1", "human Nav1.8 (Homo sapiens (Human))", 8.22),
    ("COc1cc(Cl)ccc1Oc1nc2ccccc2cc1C(=O)Nc1cccc(S(N)(=O)=O)c1", "human Nav1.8 (Homo sapiens (Human))", 7.51),
]

(P) COc1cc(F)ccc1Oc1nc2ccccc2nc1C(=O)Nc1cccc(S(C)(=O)=O)c1
(Q) COc1ccc(Oc2nc3ccccc3nc2C(=O)Nc2cccc(S(N)(=O)=O)c2)cc1F
input: Which gives the smaller pIC50 number: P or Q ? # answer = label of selected item
output: Q

====

biological target: human Nav1.8 (Homo sapiens (Human)); test: E-VIPR optical membrane potential assay with electrical stimulation; settings: HEK cells expressing human Nav1.8
readout: IC50 (µM)

Before answering, review these 10 worked examples.
# entry-smiles, assayed-system, IC50 [µM]
records = [
    ("O=C(O)c1ccc(NC(=O)c2nc3ccccc3nc2Oc2ccc(OC(F)(F)F)cc2)cn1", "human Nav1.8 (Homo sapiens (Human))", 0.015),
    ("Cc1cc(F)ccc1Oc1nc2ccccc2cc1C(=O)Nc1cccc(S(N)(=O)=O)c1", "human Nav1.8 (Homo sapiens (Human))", 0.008),
    ("COc1cc(F)ccc1Oc1nc2ccccc2nc1C(=O)Nc1ccc2[nH]nnc2c1", "human Nav1.8 (Homo sapiens (Human))", 0.096),
    ("O=C(O)c1ccc(NC(=O)c2nc3ccccc3nc2Oc2ccccc2OC(F)F)cn1", "human Nav1.8 (Homo sapiens (Human))", 0.34),
    ("COc1cc(F)ccc1Oc1nc2ccccc2nc1C(=O)Nc1cccc(C(N)=O)c1", "human Nav1.8 (Homo sapiens (Human))", 0.18),
    ("Cc1cc(Cl)ccc1Oc1nc2ccccc2cc1C(=O)Nc1cccc(S(N)(=O)=O)c1", "human Nav1.8 (Homo sapiens (Human))", 0.014),
    ("O=C(O)c1ccc(NC(=O)c2nc3ccccc3nc2Oc2ccc(OCC(F)(F)F)cc2)cn1", "human Nav1.8 (Homo sapiens (Human))", 0.18),
    ("COc1cc(F)ccc1Oc1nc2ccccc2nc1C(=O)Nc1cccnc1", "human Nav1.8 (Homo sapiens (Human))", 0.08),
    ("O=C(O)c1ccc(NC(=O)c2nc3ccccc3nc2Oc2ccc(F)cc2F)cn1", "human Nav1.8 (Homo sapiens (Human))", 0.185),
    ("COc1cc(F)ccc1Oc1nc2ccccc2nc1C(=O)Nc1ccc2[nH]c(CO)nc2c1", "human Nav1.8 (Homo sapiens (Human))", 0.425),
]

(1) Cc1cc(Cl)ccc1Oc1nc2ccccc2nc1C(=O)Nc1ccc(C(=O)O)nc1
(2) COc1cc(Cl)ccc1Oc1nc2ccccc2nc1C(=O)Nc1ccc(C(=O)O)nc1
input: Lower value for measured IC50? Options: 1 , 2 Your answer should be the label attached to the chosen record.
output: 2
(2: 0.019 µM, 1: 0.056 µM)

(a) COc1cc(F)ccc1Oc1nc2ccccc2nc1C(=O)Nc1cn[nH]c1
(b) Cc1cc(F)ccc1Oc1nc2ccccc2nc1C(=O)Nc1cccc(S(N)(=O)=O)c1
input: Which is greater in IC50, the first item a or the second item b ? Provide the label of your selected option as the answer.
output: a

(A) COc1cc(F)ccc1Oc1nc2ccccc2nc1C(=O)Nc1nc[nH]n1
(B) COc1ccc(Oc2nc3ccccc3cc2C(=O)Nc2cccc(S(N)(=O)=O)c2)c(OC)c1
input: Return label of the item with the larger IC50. Candidates: A , B . Answer format: the label of the selected item.
output: A
(A: 1.22 µM, B: 0.026 µM)

====

target: human Nav1.8 (Homo sapiens (Human), UniProt Q9Y5Y9); assay: E-VIPR optical membrane potential assay with electrical stimulation; conditions: HEK cells expressing human Nav1.8
Sequence (Q9Y5Y9 whole entry): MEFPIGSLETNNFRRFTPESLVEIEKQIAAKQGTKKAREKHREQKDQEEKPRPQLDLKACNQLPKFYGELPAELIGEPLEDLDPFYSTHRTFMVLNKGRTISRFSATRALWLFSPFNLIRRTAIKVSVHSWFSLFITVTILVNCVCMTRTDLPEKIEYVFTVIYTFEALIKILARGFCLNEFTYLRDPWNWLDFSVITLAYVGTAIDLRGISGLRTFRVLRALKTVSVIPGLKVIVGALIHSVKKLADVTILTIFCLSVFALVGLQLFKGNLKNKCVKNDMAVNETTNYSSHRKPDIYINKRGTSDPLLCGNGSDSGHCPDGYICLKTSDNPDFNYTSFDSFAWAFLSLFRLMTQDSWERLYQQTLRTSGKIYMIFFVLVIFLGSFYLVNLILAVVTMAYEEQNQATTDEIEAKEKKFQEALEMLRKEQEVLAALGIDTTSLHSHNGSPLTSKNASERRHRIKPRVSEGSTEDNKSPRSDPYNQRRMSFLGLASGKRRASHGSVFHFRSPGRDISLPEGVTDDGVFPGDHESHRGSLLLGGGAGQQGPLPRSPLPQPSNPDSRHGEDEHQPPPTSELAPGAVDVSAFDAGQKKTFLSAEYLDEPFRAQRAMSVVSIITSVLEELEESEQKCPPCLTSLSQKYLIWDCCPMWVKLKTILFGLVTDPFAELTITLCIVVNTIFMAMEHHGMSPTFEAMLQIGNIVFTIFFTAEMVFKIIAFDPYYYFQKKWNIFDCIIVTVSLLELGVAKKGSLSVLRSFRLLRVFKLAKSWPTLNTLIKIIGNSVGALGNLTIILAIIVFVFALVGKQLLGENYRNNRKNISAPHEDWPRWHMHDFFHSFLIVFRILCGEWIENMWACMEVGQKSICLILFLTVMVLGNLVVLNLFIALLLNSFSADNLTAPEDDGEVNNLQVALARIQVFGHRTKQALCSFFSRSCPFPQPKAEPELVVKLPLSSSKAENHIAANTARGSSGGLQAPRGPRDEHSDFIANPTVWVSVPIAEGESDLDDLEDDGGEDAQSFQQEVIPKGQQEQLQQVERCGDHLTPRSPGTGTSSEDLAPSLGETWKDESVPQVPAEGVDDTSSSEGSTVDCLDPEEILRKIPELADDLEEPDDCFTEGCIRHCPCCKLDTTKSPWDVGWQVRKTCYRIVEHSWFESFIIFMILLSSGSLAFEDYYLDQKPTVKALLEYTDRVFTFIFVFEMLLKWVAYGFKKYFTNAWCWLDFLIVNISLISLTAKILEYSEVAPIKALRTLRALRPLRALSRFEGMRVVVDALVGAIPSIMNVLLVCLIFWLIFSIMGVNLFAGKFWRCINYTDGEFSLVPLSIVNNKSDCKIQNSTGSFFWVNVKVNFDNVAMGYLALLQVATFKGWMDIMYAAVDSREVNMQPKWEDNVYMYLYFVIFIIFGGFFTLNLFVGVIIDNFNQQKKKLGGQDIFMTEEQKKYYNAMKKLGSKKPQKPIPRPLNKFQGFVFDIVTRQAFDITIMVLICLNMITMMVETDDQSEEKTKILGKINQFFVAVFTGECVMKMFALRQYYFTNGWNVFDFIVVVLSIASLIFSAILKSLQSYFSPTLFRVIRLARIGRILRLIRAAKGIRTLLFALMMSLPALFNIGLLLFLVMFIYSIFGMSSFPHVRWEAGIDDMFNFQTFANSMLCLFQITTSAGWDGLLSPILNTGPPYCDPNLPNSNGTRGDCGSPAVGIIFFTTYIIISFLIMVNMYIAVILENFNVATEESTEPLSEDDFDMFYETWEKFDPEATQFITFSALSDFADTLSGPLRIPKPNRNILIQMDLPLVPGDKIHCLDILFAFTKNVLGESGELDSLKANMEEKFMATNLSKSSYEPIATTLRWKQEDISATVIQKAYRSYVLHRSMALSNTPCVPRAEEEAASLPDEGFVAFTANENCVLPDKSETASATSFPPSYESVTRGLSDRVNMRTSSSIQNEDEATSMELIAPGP
readout: IC50 (nM)

(a) COc1ccc(Oc2nc3ccccc3cc2C(=O)Nc2cccc(S(N)(=O)=O)c2)c(F)c1
(b) COc1ccc(Oc2nc3ccccc3cc2C(=O)Nc2cccc(S(N)(=O)=O)c2)c(Cl)c1
(c) NS(=O)(=O)c1cccc(NC(=O)c2nc3ccccc3nc2Oc2ccc(F)cc2Cl)c1
(d) NS(=O)(=O)c1cccc(NC(=O)c2cc3ccccc3nc2Oc2ccc(F)cc2Cl)c1
(e) COc1ccc(Oc2nc3ccccc3nc2C(=O)Nc2ccc(C(=O)O)nc2)c(Cl)c1
input: Order the above compounds by increasing IC50. // ordering of labels required in reply
output: d, c, b, a, e
(d: 2 nM, c: 3 nM, b: 15 nM, a: 34 nM, e: 69 nM)

====

target: human Nav1.8 (Homo sapiens (Human), UniProt Q9Y5Y9); experiment: E-VIPR optical membrane potential assay with electrical stimulation; conditions: HEK cells expressing human Nav1.8
pIC50: −log10 of the molar value.
readout: pIC50

// solved cases for pIC50 follow
# compound, readout, measured-value
rows = [
    ("COc1cc(F)ccc1Oc1nc2ccccc2nc1C(=O)Nc1nc(C(=O)O)cs1 [Compound 37]", "pIC50", 6.35),
    ("CNS(=O)(=O)c1cccc(NC(=O)c2nc3ccccc3nc2Oc2ccc(F)cc2OC)c1 [Compound 16]", "pIC50", 7.66),
    ("COc1cc(F)ccc1Oc1nc2ccccc2nc1C(=O)Nc1ccc(C(N)=O)cc1 [Compound 58]", "pIC50", 7.51),
    ("COc1ccc(Oc2nc3ccccc3nc2C(=O)Nc2cccc(S(N)(=O)=O)c2)c(F)c1 [Compound 12]", "pIC50", 7.66),
    ("NS(=O)(=O)c1cccc(NC(=O)c2cc3ccccc3nc2Oc2ccc(F)cc2F)c1 [Compound 65]", "pIC50", 7.96),
    ("NS(=O)(=O)c1cccc(NC(=O)c2cc3ccccc3nc2Oc2ccc(OCC(F)(F)F)cc2)c1 [Compound 67]", "pIC50", 7.21),
]

(A) COc1cc(F)ccc1Oc1nc2ccccc2nc1C(=O)Nc1ccc(C#N)cc1 [Compound 55]
(B) COc1ccc(Oc2nc3ccccc3nc2C(=O)Nc2cccc(S(N)(=O)=O)c2)c(Cl)c1 [Compound 4]
input: Param metric = pIC50; output whichever of A , B has the minimum value. Identify your selection by its label.
output: A
(A: 7.34, B: 8.40)

====

target: human Nav1.8 (Homo sapiens (Human), UniProt Q9Y5Y9); experiment: E-VIPR optical membrane potential assay with electrical stimulation; conditions: HEK cells expressing human Nav1.8
pIC50: −log10 of the molar value.
readout: pIC50

For orientation, consider the following solved cases.
# compound, pIC50
measured = [
    ("NS(=O)(=O)c1cccc(NC(=O)c2cc3ccccc3nc2Oc2ccccc2)c1 [Compound 64]", 7.09),
    ("COc1cc(F)ccc1Oc1nc2ccccc2nc1C(=O)Nc1cccc(C(=O)O)c1 [Compound 36]", 6.34),
    ("NS(=O)(=O)c1cccc(NC(=O)c2cc3ccccc3nc2Oc2ccc(F)cc2)c1 [Compound 60]", 7.77),
    ("O=C(O)c1ccc(NC(=O)c2nc3ccccc3nc2Oc2ccccc2)cn1 [Compound 20]", 5.97),
]

(P) COc1ccc(Oc2nc3ccccc3nc2C(=O)Nc2ccc(C(=O)O)nc2)c(OC)c1 [Compound 26]
(Q) O=C(O)c1ccc(NC(=O)c2nc3ccccc3nc2Oc2ccc(F)cc2)cn1 [Compound 18]
input: Identify the entry with the smaller pIC50: P or Q . Give the chosen item's label as your response.
output: Q
(Q: 6.60, P: 7.34)

====

molecular target: human Nav1.8 (Homo sapiens (Human)); experiment: E-VIPR optical membrane potential assay with electrical stimulation; settings: HEK cells expressing human Nav1.8
pIC50: −log10 of the molar value.
readout: pIC50

# compound, readout, measured-value
data = [
    ("NS(=O)(=O)c1cccc(NC(=O)c2nc3ccccc3nc2Oc2ccc(OC(F)(F)F)cc2)c1 [Compound 3]", "pIC50", 7.85),
    ("COc1cc(F)ccc1Oc1nc2ccccc2nc1C(=O)Nc1cc(C#N)ccn1 [Compound 50]", "pIC50", 5.90),
    ("Cc1cc(F)ccc1Oc1nc2ccccc2nc1C(=O)Nc1ccc(C(=O)O)nc1 [Compound 19]", "pIC50", 7.07),
]

(1) NS(=O)(=O)c1cccc(NC(=O)c2nc3ccccc3nc2Oc2ccccc2OC(F)F)c1 [Compound 10]
(2) COc1cc(F)ccc1Oc1nc2ccccc2nc1C(=O)Nc1cccc(-c2nnn[nH]2)c1 [Compound 45]
(3) O=C(Nc1cc[nH]c(=O)c1)c1nc2ccccc2nc1Oc1ccc(F)cc1 [Compound 35]
(4) COc1cc(F)ccc1Oc1nc2ccccc2nc1C(=O)Nc1ccncc1 [Compound 53]
input: Order each entry by recorded pIC50, climbing from the minimum. Write the labels, ordered according to the request.
output: 2, 3, 1, 4
(2: 5.78, 3: 7.13, 1: 7.44, 4: 7.66)

(a) COc1cc(F)ccc1Oc1nc2ccccc2nc1C(=O)Nc1ccc(C#N)cn1 [Compound 52]
(b) COc1cc(F)ccc1Oc1nc2ccccc2nc1C(=O)Nc1ccc(C(=O)O)nc1 [Compound 32]
(c) O=C(O)c1ccc(NC(=O)c2nc3ccccc3nc2Oc2ccc(F)cc2Cl)cn1 [Compound 28]
(d) COc1cc(F)ccc1Oc1nc2ccccc2nc1C(=O)Nc1cccc(S(N)(=O)=O)c1 [Compound 2]
input: Rank order required: pIC50, descending. Please list the labels according to the requested order.
output: d, c, b, a

(P) COc1cc(F)ccc1Oc1nc2ccccc2nc1C(=O)Nc1ccnc(C(=O)O)c1 [Compound 34]
(Q) COc1cc(F)ccc1Oc1nc2ccccc2nc1C(=O)Nc1cccc(C#N)c1 [Compound 56]
input: Choose between P and Q : whose measured pIC50 value is numerically larger? // respond with label for picked entry
output: P

(P) COc1cc(F)ccc1Oc1nc2ccccc2nc1C(=O)Nc1ccc2[nH]c(=O)[nH]c2c1 [Compound 57]
(Q) COc1cc(F)ccc1Oc1nc2ccccc2nc1C(=O)Nc1ccc(C#N)nc1 [Compound 51]
input: In the pair P and Q , the larger recorded pIC50 belongs to which? Let me know the label of the one you choose.
output: P
(P: 7.72, Q: 7.43)

Hello, the source for this data is patent US9139529B2, in case you need it.
